Target: UniProt:P33261
Sequence (P33261 whole entry): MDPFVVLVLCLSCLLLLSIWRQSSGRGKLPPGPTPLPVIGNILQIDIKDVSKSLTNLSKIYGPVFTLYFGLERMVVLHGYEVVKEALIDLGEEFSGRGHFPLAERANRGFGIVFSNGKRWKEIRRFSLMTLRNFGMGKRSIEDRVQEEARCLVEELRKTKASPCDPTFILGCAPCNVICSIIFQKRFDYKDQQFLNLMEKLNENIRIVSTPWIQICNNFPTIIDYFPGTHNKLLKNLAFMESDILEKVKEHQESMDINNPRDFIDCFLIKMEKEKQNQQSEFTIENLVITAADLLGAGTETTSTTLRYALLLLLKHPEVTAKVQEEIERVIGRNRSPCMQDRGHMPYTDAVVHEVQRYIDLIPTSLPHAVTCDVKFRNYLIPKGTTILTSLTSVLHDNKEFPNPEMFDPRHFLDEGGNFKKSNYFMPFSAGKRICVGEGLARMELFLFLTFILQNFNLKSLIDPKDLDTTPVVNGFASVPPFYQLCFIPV
pIC50: −log10 of the molar value.
Kind request: treat 5 as inclusive, so pIC50 at 5 or higher is true (1), anything lower is false (0).

{"molecule": "O=C(NCc1cccnc1)Nc1ccc([N+](=O)[O-])cc1 [Pyrinuron]", "answer_label": "true (1)"}
{"molecule": "Cc1cc(CCC(=O)OCCOCCOCCOC(=O)CCc2cc(C)c(O)c(C(C)(C)C)c2)cc(C(C)(C)C)c1O", "answer_label": "true (1)"}
{"molecule": "CCCCCCCC[N+](CCCCCCCC)(CCCCCCCC)CCCCCCCC.[Br-] [Tetra-N-octylammonium bromide]", "answer_label": "false (0)"}
{"molecule": "CC(=O)CCc1ccc2c(c1)OCO2 [Piperonyl acetone]", "answer_label": "false (0)"}
{"molecule": "Cc1ccc([N+](=O)[O-])[c]2c1[O][Hg]2 [Nitromersol]", "answer_label": "true (1)"}
{"molecule": "O=S(=O)(O)C(F)(F)C(F)(F)C(F)(F)C(F)(F)C(F)(F)C(F)(F)C(F)(F)C(F)(F)F [PFOS]", "answer_label": "false (0)"}
{"molecule": "CCCCCCCC[P+](CCCCCCCC)(CCCCCCCC)CCCCCCCC.[Br-] [Tetraoctylphosphonium bromide]", "answer_label": "false (0)"}
{"molecule": "CC(=O)/C=C/c1ccc2c(c1)OCO2 [Piperonal acetone]", "answer_label": "false (0)"}
{"molecule": "Oc1cc2ccccc2c2ccccc12 [9-Phenanthrol]", "answer_label": "true (1)"}
{"molecule": "CC(=O)[O-].CC(=O)[O-].[Hg+2] [Mercury(II) acetate]", "answer_label": "true (1)"}
{"molecule": "O=S(=O)([O-])C(F)(F)C(F)(F)C(F)(F)C(F)(F)C(F)(F)C(F)(F)C(F)(F)C(F)(F)F.[Li+] [Lithium perfluorooctane sulfonate]", "answer_label": "false (0)"}
{"molecule": "N#Cc1c(-c2ccc(Cl)cc2)[nH]c(C(F)(F)F)c1Br [Tralopyril]", "answer_label": "false (0)"}
{"molecule": "Nc1nc2ccccc2n1Cc1ccc(F)cc1", "answer_label": "false (0)"}
{"molecule": "Cl.OC(CNCC(O)C1CCc2cc(F)ccc2O1)C1CCc2cc(F)ccc2O1 (racemic) [rac Nebivolol hydrochloride]", "answer_label": "false (0)"}
{"molecule": "OCC(c1ccc(Cl)cc1)c1ccc(Cl)cc1 [2,2-Bis(4-chlorophenyl)ethanol]", "answer_label": "true (1)"}
{"molecule": "CCCCCCCCCCCCCCCCCC(=O)O.OCCN(CCO)CCO [Triethanolamine stearate]", "answer_label": "true (1)"}
{"molecule": "O=S(=O)([O-])C(F)(F)C(F)(F)C(F)(F)C(F)(F)C(F)(F)C(F)(F)C(F)(F)C(F)(F)F.[K+] [PFOS-K]", "answer_label": "false (0)"}
